biological target: cyclooxygenase-2 (COX-2) (Ovis aries); test: inhibitory activity on cyclooxygenase-2 (Experimental Example 1-1, sheep placenta solubilized fraction); assay type: biochemical; settings: sheep placenta COX-2; inhibition at 100 μM test compound
Sequence (P79208 17-603): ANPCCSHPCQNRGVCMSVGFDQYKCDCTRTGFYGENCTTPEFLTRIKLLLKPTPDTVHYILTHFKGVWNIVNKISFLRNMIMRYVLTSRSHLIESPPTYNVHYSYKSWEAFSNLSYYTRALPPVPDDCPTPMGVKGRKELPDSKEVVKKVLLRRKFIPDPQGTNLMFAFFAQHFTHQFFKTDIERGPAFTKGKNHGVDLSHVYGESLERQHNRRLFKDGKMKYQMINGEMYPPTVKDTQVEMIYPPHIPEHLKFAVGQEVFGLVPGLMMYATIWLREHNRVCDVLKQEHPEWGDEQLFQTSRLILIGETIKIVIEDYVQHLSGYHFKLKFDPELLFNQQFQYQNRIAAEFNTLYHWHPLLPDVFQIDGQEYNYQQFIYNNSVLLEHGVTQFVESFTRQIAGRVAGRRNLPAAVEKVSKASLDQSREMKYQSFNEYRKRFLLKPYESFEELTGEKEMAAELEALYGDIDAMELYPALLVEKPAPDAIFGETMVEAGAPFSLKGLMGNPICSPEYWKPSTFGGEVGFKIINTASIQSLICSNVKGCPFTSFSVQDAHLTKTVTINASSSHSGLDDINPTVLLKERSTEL
REPORTED_METRIC: inhibition at 100 µM (%)

Some compounds with known inhibition at 100 µM results, for comparison:
Cc1nc(C2CCCC2)c(-c2ccc(S(C)(=O)=O)cc2)o1    18
Cc1nc(-c2ccco2)c(-c2ccc(S(C)(=O)=O)cc2)o1    7
Cc1nc(-c2ccsc2)c(-c2ccc(S(C)(=O)=O)cc2)o1    35

A: Cc1nc(-c2ccc(S(C)(=O)=O)cc2)c(-c2cccs2)o1
B: CS(=O)(=O)c1ccc(-c2oc(-c3ccccc3)nc2C2CCCCC2)cc1 [Example 12, reference compound]
Qu. Pick one, A or B : lowest reported inhibition at 100 µM. Choose, then provide that item's label.
Ans. A
